- TESTED TARGET: strychnine insensitive glycine binding site (NMDA receptor complex) (Rattus norvegicus, UniProt P35439)
- Construct: from tissue
- ASSAY PROTOCOL: affinity for strychnine insensitive glycine binding site
- RUN CONDITIONS: strychnine insensitive glycine binding site; read-out: pKi (converted)
MEASURE: Ki (nM)

[[record]]
molecule = "NC(=O)Nc1ccc(N2NCC(=Cc3c(C(=O)O)[nH]c4cc(Cl)cc(Cl)c34)C2=O)cc1 [Example 20]"
endpoint_unit = "nM"
experimental_value = 20.4

[[record]]
molecule = "O=C(O)c1[nH]c2cc(Cl)cc(Cl)c2c1/C=C1\\CC(=O)N(c2ccccc2)C1=O [Example 28]"
endpoint_unit = "nM"
experimental_value = 41.7

[[record]]
molecule = "O=C(O)c1[nH]c2cc(Cl)cc(Cl)c2c1/C=C1/NC(=O)N(c2ccccc2)C1=O [Example 14]"
endpoint_unit = "nM"
experimental_value = 74.1

[[record]]
molecule = "CC(=O)Nc1ccc(N2NCC(=Cc3c(C(=O)O)[nH]c4cc(Cl)cc(Cl)c34)C2=O)cc1 [Example 18]"
endpoint_unit = "nM"
experimental_value = 20

[[record]]
molecule = "CS(=O)(=O)Nc1ccc(N2NCC(=Cc3c(C(=O)O)[nH]c4cc(Cl)cc(Cl)c34)C2=O)cc1 [Example 22]"
endpoint_unit = "nM"
experimental_value = 21.9

[[record]]
molecule = "O=C(O)c1[nH]c2cc(Cl)cc(Cl)c2c1/C=C1\\CNN(c2cccc3ccccc23)C1=O [Example 34]"
endpoint_unit = "nM"
experimental_value = 49


###

# Ki listing for each entry below
- TESTED TARGET: strychnine insensitive glycine binding site (NMDA receptor complex) (Rattus norvegicus, UniProt P35439)
- Construct: from tissue
- ASSAY PROTOCOL: affinity for strychnine insensitive glycine binding site
- RUN CONDITIONS: strychnine insensitive glycine binding site; read-out: pKi (converted)
Structures can show the parent of a compound that is named as a salt.
MEASURE: Ki

[[record]]
compound = "O=C(O)c1[nH]c2cc(Cl)cc(Cl)c2c1/C=C1\\CNN(c2ccccc2)C1=O [Example 8, sodium salt]"
measure = "Ki"
experimental_value = "10 nM"

[[record]]
compound = "O=C(O)c1[nH]c2cc(Cl)cc(Cl)c2c1/C=C1\\CCCN(c2ccccc2)C1=O [Example 6, sodium salt]"
measure = "Ki"
experimental_value = "49 nM"

[[record]]
compound = "Nc1cccc(N2NC/C(=C\\c3c(C(=O)O)[nH]c4cc(Cl)cc(Cl)c34)C2=O)c1 [Example 27, hydrochloride salt]"
measure = "Ki"
experimental_value = "20 nM"

[[record]]
compound = "CN1C/C(=C\\c2c(C(=O)O)[nH]c3cc(Cl)cc(Cl)c23)C(=O)N1c1ccccc1 [Example 23]"
measure = "Ki"
experimental_value = "34.7 nM"

[[record]]
compound = "Nc1ccc(N2NC/C(=C\\c3c(C(=O)O)[nH]c4cc(Cl)cc(Cl)c34)C2=O)cc1 [Example 10, hydrochloride salt]"
measure = "Ki"
experimental_value = "14.8 nM"

[[record]]
compound = "O=C(O)c1[nH]c2cc(Cl)cc(Cl)c2c1C=C1CON(c2ccccc2)C1=O [Example 26]"
measure = "Ki"
experimental_value = "75.9 nM"

[[record]]
compound = "O=C(O)c1[nH]c2cc(Cl)cc(Cl)c2c1/C=C1\\NC(=O)N(c2ccccc2)C1=O [Example 12]"
measure = "Ki"
experimental_value = "37.2 nM"

